The measured values listed here are drawn from patent US20230303681A1.

systemUnderTest: T1, human TMEM106B (human, UniProt Q9NUM4 2-274)
T1 construct: Full-length, on transiently transfected HEK293 cells, or natively expressed on HeLa, U251 and A549 cells; also called huTMEM106B; huTMEM
protocolNotes: FACS HEK+huTMEM, 0.1 ug/ml;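 also: flow cytometry binding of purified mouse IgG antibodies to HEK293 cells transiently expressing TMEM106B, read as median fluorescence intensity with propidium iodide positive dead cells gated out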
assayEndpoint: MFI

{"binder": "anti-TMEM106B antibody TM-26 (antibody, V domains shown) VH: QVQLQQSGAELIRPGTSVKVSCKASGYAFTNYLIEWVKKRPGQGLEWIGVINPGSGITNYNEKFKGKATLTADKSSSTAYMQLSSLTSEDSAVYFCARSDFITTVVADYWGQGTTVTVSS VL: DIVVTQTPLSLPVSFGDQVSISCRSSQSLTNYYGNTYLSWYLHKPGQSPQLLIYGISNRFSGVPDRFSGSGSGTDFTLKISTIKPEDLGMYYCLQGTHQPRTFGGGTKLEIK", "MFI": 1960}
{"binder": "anti-TMEM106B antibody TM-37 (antibody, V domains shown) VH: QVQLQQSGAELAKPGASVKLSCKASGYTFTSYWMHWVKQRPGQGLEWIGYVNPSSGYTKNNQKFKDKVTLTADKSSSTAYMQLSSLTYEDSAVYYCAREGGSISDWYFDVWGTGTTVTVSS VL: DIVMTQAAPSVPVTPGESVSISCRSSKSLLHSNGNTYSYWFLQRPGQSPQLLIYRMSNLASGVPDRFSGSGSGTAFTLRISRVEAEDVGVYYCMQHLEYPYTFGGGTKLEIK", "MFI": 29400}
{"binder": "anti-TMEM106B antibody TM-2 (antibody, V domains shown) VH: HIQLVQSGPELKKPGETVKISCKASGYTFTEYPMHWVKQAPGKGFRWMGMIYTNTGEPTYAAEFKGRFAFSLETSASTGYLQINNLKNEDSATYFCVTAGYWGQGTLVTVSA VL: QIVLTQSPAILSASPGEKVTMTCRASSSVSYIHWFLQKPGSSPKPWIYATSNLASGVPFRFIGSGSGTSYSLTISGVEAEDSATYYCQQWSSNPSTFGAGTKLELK", "MFI": 4730}
{"binder": "anti-TMEM106B antibody TM-23 (antibody, V domains shown) VH: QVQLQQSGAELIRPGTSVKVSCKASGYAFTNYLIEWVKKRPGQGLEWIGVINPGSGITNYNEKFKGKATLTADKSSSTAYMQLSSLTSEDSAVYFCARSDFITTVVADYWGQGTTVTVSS VL: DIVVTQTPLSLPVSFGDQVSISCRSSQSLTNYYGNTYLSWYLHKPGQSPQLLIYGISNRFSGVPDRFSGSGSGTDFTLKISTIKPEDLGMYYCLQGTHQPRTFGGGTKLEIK", "MFI": 2410}
{"binder": "anti-TMEM106B antibody TM-11 (antibody, V domains shown) VH: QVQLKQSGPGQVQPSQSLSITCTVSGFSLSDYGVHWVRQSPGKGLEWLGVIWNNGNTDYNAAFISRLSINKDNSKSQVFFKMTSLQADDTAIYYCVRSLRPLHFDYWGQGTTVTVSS VL: DIVMTQSPSSLTMSVGQKVTMHCKSSQSLLNSNNLQNYLAWYQQKPGQSPTLLVYFASIRESGVPDRFIGSGSGTDFTLTISSVQAEDLADYFCQQHYNTPFTFGSGTKLEIR", "MFI": 16200}

Input: Which MFI value belongs to anti-TMEM106B antibody TM-4 (antibody, V domains shown) VH: EVQVQQSGPVLVKPGASVKMSCKASGYTFTDYYMNWVKQSHGKNLEWIGVINPYNGGTSYHQKFKGKATLTVDKSSSTAYMELNSLTSEDSAVYYCARAATVVAGFDYWGQGTTLTVSS VL: QAVVTQESALTTSPGETVTLTCRSSTGAVTTSNYANWVQEKPDHLFTGLIGGTNNRAPGVPARFSGSLIGDKAALTITGAQTEDEAIYFCVLWYSNHLVFGGGTKLTVL ?
Output: 304

Input: For anti-TMEM106B antibody TM-33 (antibody, V domains shown, mouse IgG from hybridoma) VH: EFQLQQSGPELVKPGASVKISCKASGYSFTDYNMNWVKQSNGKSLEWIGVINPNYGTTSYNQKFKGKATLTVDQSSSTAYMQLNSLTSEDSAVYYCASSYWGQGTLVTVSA VL: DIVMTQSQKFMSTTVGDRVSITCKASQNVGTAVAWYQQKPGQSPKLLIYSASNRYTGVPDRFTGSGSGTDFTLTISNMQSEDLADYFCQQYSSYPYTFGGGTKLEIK , what is its reported MFI?
Output: 1750
